// reported pEC50 per item
# Tested on: HeLa MKYP cells
# protocolDetails: Human mitophagy assay (HeLa mKeima assay, FACS)
# Assay type: cell-based
# cond: Homo sapiens, HeLa; read-out: Mitophagy induction EC50
pEC50: −log10 of the molar value.

{"columns": ["compound", "pEC50"],
 "data": [
  ["c1ccc2c(c1)CC[C@H](C1CCOCC1)[C@H]2Nc1ncnc2[nH]c(C3CC3)cc12 (single isomer, unassigned) [EP-0040582]", 7.10],
  ["FC1(F)CN(C2COc3ccccc3C2Nc2ncnc3[nH]c(C4CC4)cc23)C1 (racemic)", 6.00],
  ["FC(F)(F)c1cc2c(N[C@@H]3c4ccccc4OC[C@H]3C3CCOCC3)ncnc2[nH]1 (single isomer, unassigned)", 6.96]
]}

====

# Tested on: HeLa MKYP cells
# protocolDetails: Human mitophagy assay (HeLa mKeima assay, FACS)
# Type: cell-based
# cond: Homo sapiens, HeLa; read-out: Mitophagy induction EC50
pEC50: −log10 of the molar value.

{"columns": ["molecule", "pEC50"],
 "data": [
  ["FC(F)(F)c1cc2c(N[C@H]3c4ccccc4CC[C@H]3C3CCOCC3)ncnc2[nH]1 [EP-0040557]", "< 4.60"],
  ["c1ccc2c(c1)CC[C@H](N1C[C@H]3COC[C@H]3C1)[C@H]2Nc1ncnc2[nH]c(C3CC3)cc12 (single isomer, unassigned) [EP-0040248]", "< 4.60"],
  ["c1ccc2c(c1)OC[C@H](C1CCOCC1)[C@@H]2Nc1ncnc2[nH]c(C3CC3)cc12 [EP-0040731]", "< 4.60"],
  ["FC(F)(F)c1cc2c(N[C@H]3c4ccccc4CC[C@@H]3N3CC4(COC4)C3)ncnc2[nH]1 [EP-0038249]", "< 4.60"]
]}

====

Recorded Max % death with 1 μM FO values for a group of compounds are listed next.
# Test system: HeLa MKYP cells
# protocolDetails: Cell death measured by DAPI staining, with 1 μM FCCP/oligomycin or no toxin (no FO)
# Format: cell-based
# cond: with 1 μM FO
# Method: EP-0035985, EP-0037821, EP-0038098, and EP-0038099 in the presence of 1 μM FCCP/oligomycin or with no toxin (no FO) for 6 hrs. H2O2 treatment was performed as a control for cell death as measured by DAPI staining. EP-0035985, EP-0038461, EP-0038463, and EP-0038503 in the presence of 1 μM FCCP/oligomycin or with no toxin (no FO) for 6.5 hrs. H2O2 treatment was performed as a control for cell death as measured by DAPI staining. […]

{"columns": ["compound", "Max % death with 1 μM FO"],
 "data": [
  ["CC(C)(O)C1CN([C@H]2COc3ccccc3[C@@H]2Nc2ncnc3[nH]c(C(F)(F)F)cc23)C1 (single isomer, unassigned)", "3.4%"],
  ["Fc1ccc2c(c1)CC[C@H](N1C[C@H]3COC[C@H]3C1)[C@H]2Nc1ncnc2[nH]c(C(F)(F)F)cc12 (single isomer, unassigned)", "12.1%"],
  ["c1ccc2c(c1)OC[C@@H](N1C[C@H]3COC[C@H]3C1)[C@@H]2Nc1ncnc2[nH]c(C3CC3)cc12 (single isomer, unassigned)", "11.8%"],
  ["FC(F)(F)c1cc2c(NC3c4ccccc4OCC3N3CCC4(CCOC4)CC3)ncnc2[nH]1 (centres unmarked)", "3.7%"],
  ["C[C@H]1COCCN1[C@@H]1CCc2ccccc2[C@H]1Nc1ncnc2[nH]c(C(F)(F)F)cc12 (single isomer, unassigned) [EP-0040193]", "29.7%"],
  ["c1ccc2c(c1)OCC(N1CC3CCOC3C1)C2Nc1ncnc2[nH]c(C3CC3)cc12 (single isomer, unassigned) [EP-0041667]", "3.1%"],
  ["FC(F)(F)c1cc2c(N[C@H]3c4ccccc4CC[C@H]3OC3CCOCC3)ncnc2[nH]1 (single isomer, unassigned)", "3.1%"],
  ["Fc1ccc2c(c1)CC[C@H](N1C[C@H]3COC[C@H]3C1)[C@H]2Nc1ncnc2[nH]c(C3CC3)cc12", "45.3%"],
  ["C[C@H]1CN([C@H]2COc3cc(F)ccc3[C@@H]2Nc2ncnc3[nH]c(C(F)(F)F)cc23)CCO1", "7.0%"],
  ["CO[C@H]1CCN([C@H]2COc3ccccc3[C@@H]2Nc2ncnc3[nH]c(C4CC4)cc23)C1", "4.8%"],
  ["c1ccc2c(c1)CC[C@H](C1CCOCC1)[C@H]2Nc1ncnc2[nH]c(C3CC3)cc12 (single isomer, unassigned) [EP-0040582]", "17.7%"],
  ["C[C@@H]1CN([C@H]2COc3cc(F)ccc3[C@@H]2Nc2ncnc3[nH]c(C4CC4)cc23)C[C@H](C)O1 (single isomer, unassigned) [EP-0040842]", "22.5%"],
  ["c1ccc2c(c1)OC[C@H](C1CCOCC1)[C@H]2Nc1ncnc2[nH]c(C3CC3)cc12 [EP-0040728]", "3.7%"],
  ["Fc1ccc2c(c1)CC[C@H](N1C[C@H]3COC[C@@H]3C1)[C@H]2Nc1ncnc2[nH]c(C3CC3)cc12", "8.1%"],
  ["Fc1ccc2c(c1)OC[C@H](N1C[C@@H]3COC[C@H]3C1)[C@H]2Nc1ncnc2[nH]c(C(F)(F)F)cc12 (single isomer, unassigned)", "7.9%"],
  ["Fc1ccc2c(c1)OC[C@H](N1C[C@H]3COC[C@H]3C1)[C@H]2Nc1ncnc2[nH]c(C3CC3)cc12 (single isomer, unassigned) [EP-0040328]", "16.0%"],
  ["FC(F)(F)c1cc2c(N[C@@H]3c4ccccc4CC[C@H]3N3C[C@H]4COC[C@H]4C3)ncnc2[nH]1 (single isomer, unassigned)", "18.1%"]
]}

====

# System: HeLa MKYP cells
# protocolDetails: Human mitophagy assay (HeLa mKeima assay, FACS)
# Assay type: cell-based
# cond: Homo sapiens, HeLa; read-out: Mitophagy induction EC50

{"columns": ["compound", "EC50"],
 "data": [
  ["CS(=N)(=O)C1CN(C2COc3ccccc3C2Nc2ncnc3[nH]c(C(F)(F)F)cc23)C1 (stereo not drawn)", "> 25 µM"],
  ["C[C@@H]1COCCN1[C@H]1CCc2ccccc2[C@@H]1Nc1ncnc2[nH]c(C3CC3)cc12 (single isomer, unassigned)", "> 25 µM"],
  ["FC(F)(F)c1cc2c(N[C@@H]3c4ccccc4OC[C@H]3C3CCCOC3)ncnc2[nH]1 (stereo partly drawn)", "> 25 µM"]
]}

====

# protocolDetails: Mitotoxicity / Mitotox safety margin (therapeutic window)
# Assay type: cell-based
# cond: mitotox or cytotox
outcomeMeasure: Highest safe dose (μM) (mitotox or cytotox) (µM)

{"columns": ["molecule", "measuredNumber"],
 "data": [
  ["C[C@@H]1CN([C@H]2COc3cc(F)ccc3[C@@H]2Nc2ncnc3[nH]c(C4CC4)cc23)CCO1", 2.0],
  ["COC[C@@H]1CCN([C@H]2COc3ccccc3[C@@H]2Nc2ncnc3[nH]c(C(F)(F)F)cc23)C1 (single isomer, unassigned)", 3.3],
  ["FC(F)(F)c1cc2c(N[C@H]3c4ccccc4OC[C@H]3C3CCCOC3)ncnc2[nH]1 (mixture of isomers)", 25.0],
  ["COC1CN([C@H]2CCc3ccccc3[C@@H]2Nc2ncnc3[nH]c(C(F)(F)F)cc23)C1 [EP-0040688]", 8.3],
  ["C[C@@H]1CN([C@H]2COc3cc(F)ccc3[C@@H]2Nc2ncnc3[nH]c(C4CC4)cc23)C[C@H](C)O1 (single isomer, unassigned) [EP-0040842]", 2.0],
  ["Fc1ccc2c(c1)CC[C@H](N1C[C@H]3COC[C@@H]3C1)[C@H]2Nc1ncnc2[nH]c(C3CC3)cc12", 11.7],
  ["CO[C@H]1CCN([C@H]2COc3ccccc3[C@@H]2Nc2ncnc3[nH]c(C(F)(F)F)cc23)C1", 1.1]
]}

====

# System: HeLa MKYP cells
# protocolDetails: Cell death measured by DAPI staining, with 1 μM FCCP/oligomycin or no toxin (no FO)
# Assay type: cell-based
# cond: no FO; safe means DAPI+ <20%
outcomeMeasure: Highest safe dose (cytotoxicity; no FO; safe means DAPI+ <20%) (µM)

{"columns": ["compound", "measuredNumber"],
 "data": [
  ["C[C@@H]1CN([C@@H]2CCc3ccccc3[C@H]2Nc2ncnc3[nH]c(C4CC4)cc23)CCO1 (single isomer, unassigned)", 25.0],
  ["COC1CN([C@H]2CCc3ccccc3[C@@H]2Nc2ncnc3[nH]c(C(F)(F)F)cc23)C1 [EP-0040688]", 8.3],
  ["C[C@@H]1CN([C@H]2COc3ccccc3[C@@H]2Nc2ncnc3[nH]c(C4CC4)cc23)CCO1", 25.0]
]}
